Values compiled from ChEMBL document CHEMBL1201862.

test system: OVCAR-5; assay: NCI tumour cell line growth inhibition, 48 h
Calls of active or inactive are those of the source. Cut-off read from the data, not from the text of the source: active = GI50 up to about 1.1 µM and inactive = higher. Non-standard residues stand in square brackets, D forms with d. Residues, ends and D or L forms follow the SMILES beside them. *: point of attachment. Phe(4-NO2) = N[CH](Cc1ccc([N+](=O)[O-])cc1)C(=O)O; Boc = CC(C)(C)OC(=O)*
Return exactly one item of yes (1) = active, no (0) = inactive

[
  {
    "COMPOUND": "COC1(OC)c2no[n+]([O-])c2C(OC)(OC)c2c1no[n+]2[O-]",
    "LABEL": "no (0)"
  }
]

Request: // outcome(item) with item = "c1ccc2c(c1)CCc1[nH]c3c(c1-2)-c1ccccc1CC3"
Response: no (0)

Request: // outcome(item) with item = COC(=O)CCC(NC(=O)OC(C)(C)C)C(=O)NC(Cc1ccc([N+](=O)[O-])cc1)C(=O)NC(CCC(=O)OC)C(=O)OC (stereo not given) (Boc-Glu(OMe)-[Phe(4-NO2)]-Glu(OMe)-OMe; configuration not given here)
Response: no (0)

Request: // outcome(item) with item = Oc1ccc2c3c1OC1c4[nH]ncc4C[C@H]4[C@@H](C2)N(CC2CC2)CC[C@]314 (stereo not given in full)
Response: no (0)

Request: // outcome(item) with item = "O=C(CCCN1CCC2(CC1)CC(=O)N(N1CCOCC1)C2=O)c1ccccc1"
Response: no (0)

Request: // outcome(item) with item = "O=C(CN(c1ccccc1)c1ccccc1)n1nnc2ccccc21"
Response: no (0)

Request: // outcome(item) with item = COC1CC2C=CC3C4OC2(/C(C)=C/C(C)C(C(C)O)OC1=O)C3C(O)C(C)C4OC(=O)c1ccc[nH]1 (stereo not given)
Response: no (0)

Request: // outcome(item) with item = "O=[N+]([O-])c1ccc(-c2cc(O)c3nc4ccccc4n3c2)cc1"
Response: no (0)

Request: // outcome(item) with item = "Oc1c(N2CCCCC2)cc(-c2cc(N3CCCCC3)c(O)c3ccccc23)c2ccccc12"
Response: no (0)

----------
system: UACC-62; experiment: NCI tumour cell line growth inhibition, 48 h
Calls of active or inactive are those of the source. Cut-off read from the data, not from the text of the source: active = GI50 up to about 1.1 µM and inactive = higher.
Return exactly one item of 1.0 = active, 0.0 = inactive

[
  {
    "COMPOUND": "O=C(O)C(Sc1ccc(Cl)cc1)Sc1ccc(Cl)cc1",
    "TEST_TARGET": "UACC-62",
    "LABEL": 0.0
  }
]

Request: // outcome(item) with item = "COC(C)(C)CCc1[nH]c2ccccc2c1CC(=O)NCCc1cncn1C"
Response: 0.0

Request: // outcome(item) with item = "Cc1ccc(/C=C2\N=C(N3CCCCC3)NC2=O)cc1"
Response: 0.0

Request: // outcome(item) with item = "Oc1ccc(C(c2ccc(O)cc2)c2ccc(O)cc2)cc1"
Response: 0.0

Request: // outcome(item) with item = "CCN1CCN=c2c3cc(OC)ccc3n3cnc4ccc1c2c43"
Response: 1.0

Request: // outcome(item) with item = "COc1ccc2nc3cc(Cl)ccc3c(NCCCN(C)CCCNc3ccc4ncn5c6ccccc6c(=O)c3c45)c2c1"
Response: 0.0

Request: // outcome(item) with item = "CCSc1nc(N)c2c(-c3ccccc3)c3c(nc2n1)CCC3"
Response: 0.0

Request: // outcome(item) with item = "N=C(N)c1ccc(/N=N/c2c(O)ccc3cc(O)ccc23)cc1"
Response: 0.0

Request: // outcome(item) with item = "O=C(CN(c1ccccc1)c1ccccc1)n1nnc2ccccc21"
Response: 0.0

Request: // outcome(item) with item = "CS(=O)(=O)OCCCCOS(=O)(=O)CF"
Response: 0.0
